molecular target: MAO-B (Rattus norvegicus, UniProt P19643); construct: The MAO enzyme source was a homogenate of rat brain in 0.3 M sucrose 1:20 w/v; from tissue; host or cells: rat brain homogenate; test: Inhibition of MAO activity in vitro (PEA as substrate); assay type: biochemical; conditions: rat brain homogenate, 60 min pre-incubation at 37° C., 14C PEA substrate; read-out: In vitro IC50 B
Sequence (P19643 whole entry): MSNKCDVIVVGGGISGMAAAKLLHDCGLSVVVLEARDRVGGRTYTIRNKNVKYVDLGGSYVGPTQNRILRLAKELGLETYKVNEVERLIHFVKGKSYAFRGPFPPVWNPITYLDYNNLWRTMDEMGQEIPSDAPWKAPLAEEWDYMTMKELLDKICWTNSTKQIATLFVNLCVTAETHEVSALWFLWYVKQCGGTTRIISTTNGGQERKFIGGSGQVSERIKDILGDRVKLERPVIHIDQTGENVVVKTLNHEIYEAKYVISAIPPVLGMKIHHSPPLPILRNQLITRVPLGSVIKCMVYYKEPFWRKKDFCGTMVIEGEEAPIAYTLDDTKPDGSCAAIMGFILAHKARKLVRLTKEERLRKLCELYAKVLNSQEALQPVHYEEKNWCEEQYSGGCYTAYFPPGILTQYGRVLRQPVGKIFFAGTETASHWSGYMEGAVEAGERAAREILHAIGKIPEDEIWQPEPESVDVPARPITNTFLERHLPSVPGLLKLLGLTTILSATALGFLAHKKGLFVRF
pIC50: −log10 of the molar value. Where a name gives a salt, the structure may show the parent alone.
Would you mind labelling by pIC50? At or over 5 is fulfilled, under is not fulfilled.

Example entries and their recorded answers appear below.
compound	group
C#CCN(C)[C@H]1CCc2ccc(O)cc21 [Cmpd 113, (S)3-(methyl-prop-2-ynylamino)-5-indanol]	not fulfilled
C#CCN(C)C1CCc2cc(OC(=O)c3ccccc3)c(OC(=O)c3ccccc3)cc2C1 (racemic) [Cmpd 138, HCl]	fulfilled
C#CCN(C)[C@@H]1CCc2ccc(O)cc21 [Cmpd 114, (R)3-(methyl-prop-2-ynylamino)-5-indanol]	fulfilled
C#CCN(C)C1CCc2ccc(O)cc21 (racemic)	fulfilled
C#CCN(C)[C@@H]1CCc2ccc(OC(=O)CCCC)cc21	fulfilled

// next entry
Check the entry C#CCN(C)[C@@H]1CCc2ccc(OC(C)=O)cc21 : does pIC50 equal or exceed 5? fulfilled
